# TARGET_UNDER_TEST: Adrenergic receptor alpha-1 (Homo sapiens, UniProt P35348+P25100+P35368)
# PROCEDURE_SUMMARY: Displacement of [3H]prazosin from Alpha-1 adrenergic receptor
# Type: protein assay
ENDPOINT_NAME: Ki (nM)

Known Ki results, listed for orientation:
OCCNc1ccnc(N2CCc3ccccc3C2)c1 : 2300
Cc1cc(NCCO)cc(N2CCc3ccccc3C2)n1 : 3300
Cc1cnc(N2CCc3ccccc3C2)cc1N : 1000
Cc1cc(N)cc(N2CCc3ccccc3C2)n1 : 730
Nc1ccnc(N2CCc3ccccc3C2)c1 : 1200
CCc1cc(N)cc(N2CCc3ccccc3C2)n1 : 670

A = Nc1cc(CO)nc(N2CCc3ccccc3C2)c1
B = Nc1cc(N2CCc3ccccc3C2)nc2c1CCC2
C = Cc1cnc(N2CCc3ccccc3C2)cc1NCCO
D = CN(C)c1ccnc(N2CCc3ccccc3C2)c1
Exam item: Rank the items in ascending order with respect to Ki. Sort the labels as requested; that list is your answer.
Marked response: D, B, A, C

---

# TARGET_UNDER_TEST: Glutamate [NMDA] receptor
pKi: −log10 of the molar value.
ENDPOINT_NAME: pKi

Example results:
Cc1cc(N)nc(N2CCc3ccccc3C2)c1 : 6.96
Nc1cc(CO)nc(N2CCc3ccccc3C2)c1 : 8.40
c1ccc(N2CCc3ccccc3C2)nc1 : 6.12
CN(C)c1ccnc(N2CCc3ccccc3C2)c1 : 8.10

a = Cc1ccnc(N2CCc3ccccc3C2)c1
b = Cc1cnc(N2CCc3ccccc3C2)cc1NCCO
c = Cc1cc(NCCO)cc(N2CCc3ccccc3C2)n1
Exam item: Output the entries ranked by pKi from maximum down to minimum. Give your ranking as a list of the labels in the requested order.
Marked response: c, b, a

---

# PROCEDURE_SUMMARY: physchem
# Description: Dissociation constant (pKa)
ENDPOINT_NAME: pKa

Would you please look over these solved cases?
Brc1ccc(N2CCc3ccccc3C2)nc1 : 3
Cc1cc(N)cc(N2CCc3ccccc3C2)n1 : 9
Cc1cnc(N2CCc3ccccc3C2)cc1NCCO : 9

a = CN(C)c1ccnc(N2CCc3ccccc3C2)c1
b = Nc1ccc(N2CCc3ccccc3C2)nc1
Exam item: Hi team, can someone confirm which has the larger pKa: a or b ? Thanks. The response must carry the label of the picked entry.
Marked response: a
(a: 8.8, b: 5.8)

---

# PROCEDURE_SUMMARY: physchem
ENDPOINT_NAME: pKa

Nc1cc(CO)nc(N2CCc3ccccc3C2)c1 : 8.1
Brc1cccc(N2CCc3ccccc3C2)n1 : 2

1 = CCOC(=O)C(=O)Nc1cc(C)nc(N2CCc3ccccc3C2)c1
2 = Nc1cc(N2CCc3ccccc3C2)nc2c1CCC2
Exam item: // max by pKa over [ 1 , 2 ] Write down the label attached to your selection.
Marked response: 2
(2: 9.4, 1: 6.5)

A = CCc1cc(N)cc(N2CCc3ccccc3C2)n1
B = Nc1cccc(N2CCc3ccccc3C2)n1
Exam item: Which entry has a larger number for pKa, A or B ? Refer to your chosen entry by its label in the reply.
Marked response: A
(A: 9, B: 6)

---

# TARGET_UNDER_TEST: Glutamate [NMDA] receptor
ENDPOINT_NAME: Ki (nM)

Example results:
OCCNc1ccnc(N2CCc3ccccc3C2)c1 : 2
CCc1cc(N)cc(N2CCc3ccccc3C2)n1 : 3
Nc1ccc(N2CCc3ccccc3C2)nc1 : 1100
Nc1cccc(N2CCc3ccccc3C2)n1 : 190
C[C@@H](CN1CCC(Cc2ccccc2)CC1)[C@@H](O)c1ccc(O)cc1 (single isomer, unassigned) : 6
Cc1cnc(N2CCc3ccccc3C2)cc1N : 4

1 = Brc1ccc(N2CCc3ccccc3C2)nc1
2 = CCOC(=O)C(=O)Nc1cc(C)nc(N2CCc3ccccc3C2)c1
3 = Nc1ccnc(N2CCc3ccccc3C2)c1
4 = Cc1cc(N)cc(N2CCc3ccccc3C2)n1
5 = Nc1cc(N2CCc3ccccc3C2)nc2c1CCC2
Exam item: Put these in order: smallest Ki first, largest last. # output: labels, in the requested order
Marked response: 3, 4, 5, 2, 1
(3: 3 nM, 4: 5 nM, 5: 9 nM, 2: 260 nM, 1: 7500 nM)

I = CC(=O)Nc1ccnc(N2CCc3ccccc3C2)c1
II = OCCNc1cc(N2CCc3ccccc3C2)nc2ccccc12
Exam item: Select the item whose Ki value is smaller, choosing between I and II . Record your answer as the label of the chosen record.
Marked response: II

A = Nc1cccnc1N1CCc2ccccc2C1
B = c1ccc(CNc2ccnc(N3CCc4ccccc4C3)c2)cc1
Exam item: Input pair: A , B . Output: entry with lower Ki. To answer, give the label that identifies your chosen option.
Marked response: B
(B: 150 nM, A: 380 nM)
